Numbers sourced from BigSolDB 2.1.

Details: in chloroform, 293.15 K
Value Type: solubility (mole fraction)

• c1ccc(-n2c3ccccc3c3ccccc32)cc1 = 0.399

====

Details: in n-butanol, 288.15 K
Value Type: solubility (mole fraction)

• c1ccc(-n2c3ccccc3c3ccccc32)cc1 = 0.00266

====

Conditions: in cyclohexane, 303.15 K
Value Type: solubility (mole fraction)

* c1ccc(-n2c3ccccc3c3ccccc32)cc1 | 0.0815

====

Details: in chloroform, 283.15 K
Value Type: solubility (mole fraction)

• c1ccc(-n2c3ccccc3c3ccccc32)cc1 = 0.262

====

Settings: in isopropanol, 313.15 K
Value Type: solubility (mole fraction)

- c1ccc(-n2c3ccccc3c3ccccc32)cc1: 0.00591

====

Conditions: in n-butanol, 308.15 K
Value Type: solubility (mole fraction)

- c1ccc(-n2c3ccccc3c3ccccc32)cc1: 0.00691

====

Settings: in isopropanol, 283.15 K
Value Type: solubility (mole fraction)

- c1ccc(-n2c3ccccc3c3ccccc32)cc1: 0.00131

====

Conditions: in isopropanol, 278.15 K
Value Type: solubility (mole fraction)

- c1ccc(-n2c3ccccc3c3ccccc32)cc1: 0.001

====

Details: in ethanol, 303.15 K
Value Type: solubility (mole fraction)

• c1ccc(-n2c3ccccc3c3ccccc32)cc1 = 0.0042

====

Conditions: in THF, 293.15 K
Value Type: solubility (mole fraction)

* c1ccc(-n2c3ccccc3c3ccccc32)cc1 | 0.346

====

Details: in n-hexane, 298.15 K
Value Type: solubility (mole fraction)

* c1ccc(-n2c3ccccc3c3ccccc32)cc1 | 0.0552

====

Details: in THF, 303.15 K
Value Type: solubility (mole fraction)

- c1ccc(-n2c3ccccc3c3ccccc32)cc1: 0.439

====

Details: in methanol, 293.15 K
Value Type: solubility (mole fraction)

* c1ccc(-n2c3ccccc3c3ccccc32)cc1 | 0.000208

====

Settings: in chloroform, 278.15 K
Value Type: solubility (mole fraction)

* c1ccc(-n2c3ccccc3c3ccccc32)cc1 | 0.237

====

Details: in methanol, 283.15 K
Value Type: solubility (mole fraction)

* c1ccc(-n2c3ccccc3c3ccccc32)cc1 | 0.00011

====

Settings: in ethanol, 308.15 K
Value Type: solubility (mole fraction)

• c1ccc(-n2c3ccccc3c3ccccc32)cc1 = 0.00574

====

Conditions: in acetonitrile, 303.15 K
Value Type: solubility (mole fraction)

- c1ccc(-n2c3ccccc3c3ccccc32)cc1: 0.00735

====

Details: in acetonitrile, 308.15 K
Value Type: solubility (mole fraction)

• c1ccc(-n2c3ccccc3c3ccccc32)cc1 = 0.00826

====

Conditions: in n-butanol, 283.15 K
Value Type: solubility (mole fraction)

* c1ccc(-n2c3ccccc3c3ccccc32)cc1 | 0.00219

====

Conditions: in 1,4-dioxane, 303.15 K
Value Type: solubility (mole fraction)

- c1ccc(-n2c3ccccc3c3ccccc32)cc1: 0.417

====

Details: in n-hexane, 283.15 K
Value Type: solubility (mole fraction)

• c1ccc(-n2c3ccccc3c3ccccc32)cc1 = 0.0378

====

Conditions: in methanol, 298.15 K
Value Type: solubility (mole fraction)

* c1ccc(-n2c3ccccc3c3ccccc32)cc1 | 0.000251

====

Settings: in n-butanol, 278.15 K
Value Type: solubility (mole fraction)

• c1ccc(-n2c3ccccc3c3ccccc32)cc1 = 0.00207

====

Details: in acetonitrile, 278.15 K
Value Type: solubility (mole fraction)

• c1ccc(-n2c3ccccc3c3ccccc32)cc1 = 0.00383
